Where these numbers come from: patent US20260232713A1

For each entry below, report its CC50 at 72 h value.
Assay: in vitro
Settings: human
Description: Inhibition of HIV-Nef was measured by assessing its capacity to downmodulate MHC-I HLA-A2 on the surface of primary CD4+ T cells 24-hours after treatment with each compound. V-ATPase inhibition was assessed at the same time point using lysosomal acidification as an indicator of V-ATPase activity. This was measured using a flow cytometric assay that quantified Lysotracker mean fluorescence intensity as previously described (Painter et al., 2020). […]

Lab book: CC50 at 72 h of COc1cc2c(O)c3c(c(-c4ccc5c(c4)OCO5)c2cc1OC)C(=O)OC3 [Compound S1, Diphyllin, reference compound] noted as > 1 µM

Lab book: CC50 at 72 h of CC[C@H]1OC(=O)[C@H](C)C(=O)[C@H](C)[C@@H](O[C@@H]2O[C@H](C)C[C@H](N(C)C)[C@H]2O)[C@@H](C)C[C@@H](C)C(=O)/C=C/[C@H]1C [Compound S33, Narbomycin, reference compound] noted as > 1 µM

Lab book: CC50 at 72 h of CCC1OC(=O)C(C)C(OC2OC(C)CC(N(C)C)C2O)C(C)CC(C)C(=O)C=CC1C (stereo not shown) [Compound S30, YC-17, reference compound] noted as > 1 µM

Lab book: CC50 at 72 h of CO/C1=C\C(C)=C\[C@@H](C)C(=O)[C@@H](C)C/C(C)=C/C=C/[C@H](OC)[C@@H]([C@@H](C)[C@@H](O)[C@H](C)[C@@]2(O)C[C@@H](O)[C@H](C)[C@@H](C(C)C)O2)OC1=O [Compound S17] noted as > 1 µM

Lab book: CC50 at 72 h of CC[C@H]1OC(=O)[C@H](C)[C@@H](O)[C@@H](C)C[C@@H](C)C(=O)/C=C/[C@H]1C [10-deoxymethynolide, reference compound] noted as 0.14 µM

Lab book: CC50 at 72 h of CC[C@H]1OC(=O)[C@H](C)[C@@H](O[C@H]2C[C@@](C)(OC)[C@@H](O)[C@H](C)O2)[C@H](C)[C@@H](O[C@@H]2O[C@H](C)C[C@H](N(C)C)[C@H]2O)[C@](C)(O)C[C@@H](C)C(=O)[C@H](C)[C@@H](O)[C@H]1C [Compound S32, Erythromycin B, reference compound] noted as > 1 µM

Lab book: CC50 at 72 h of CO[C@H]1/C=C/O[C@@]2(C)Oc3c(C)c(O)c4c(O)c(c(/C=N/N5CCN(C)CC5)c(O)c4c3C2=O)NC(=O)/C(C)=C\C=C\[C@H](C)[C@H](O)[C@@H](C)[C@@H](O)[C@@H](C)[C@H](OC(C)=O)[C@@H]1C [Compound S26, Rifampicin, reference compound] noted as > 1 µM

====

Target: V-ATPase (Homo sapiens, UniProt P27449)
Construct: endogenous in cells; host or cells: primary CD4+ T cells (HIV ΔGPE infected) from donor PBMCs
Sequence (P27449 whole entry, looked up): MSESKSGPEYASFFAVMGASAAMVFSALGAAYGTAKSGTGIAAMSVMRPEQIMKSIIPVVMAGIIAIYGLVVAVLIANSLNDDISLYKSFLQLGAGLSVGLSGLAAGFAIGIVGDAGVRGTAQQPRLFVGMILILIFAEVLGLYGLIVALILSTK
Assay: Lysosomal acidification (Lysotracker mean fluorescence intensity) as indicator of V-ATPase activity in primary CD4+ T cells
Type: cell-based
Experimental: Inhibition of HIV-Nef was measured by assessing its capacity to downmodulate MHC-I HLA-A2 on the surface of primary CD4+ T cells 24-hours after treatment with each compound. V-ATPase inhibition was assessed at the same time point using lysosomal acidification as an indicator of V-ATPase activity. This was measured using a flow cytometric assay that quantified Lysotracker mean fluorescence intensity as previously described (Painter et al., 2020). […]
For each entry below, report its log10 of IC50 value.
// units: nM (pre-log); metric: IC50; scale: log10

Record for CO/C1=C\C(C)=C\[C@@H](C)[C@@H](O)[C@@H](C)C/C(C)=C/C=C/[C@H](OC)[C@@H]([C@@H](C)[C@@H](O)[C@H](C)[C@@]2(O)C[C@@H](OC(C)=O)[C@H](C)C(C(C)C)O2)OC1=O (some centres unmarked) under target or system V-ATPase (Homo sapiens, UniProt P27449): log10 of IC50 reported as 1.36

Record for C/C=C/[C@H]1O[C@@](O)([C@@H](C)[C@H](O)[C@H](C)[C@H]2OC(=O)/C(OC)=C/C(C)=C/[C@@H](C)[C@@H](O)[C@@H](C)[C@@H](O)[C@H](C)C/C(C)=C/C=C/[C@@H]2OC)C[C@@H](O[C@@H]2C[C@H](OC(=O)CCCC)[C@@H](OC(N)=O)[C@H](C)O2)[C@@H]1C [Compound 9, 3-pentanoate Concanamycin B] under target or system V-ATPase (Homo sapiens, UniProt P27449): log10 of IC50 reported as 2.04

Record for C/C=C/[C@H]1O[C@@](O)([C@@H](C)[C@H](O)[C@H](C)[C@H]2OC(=O)/C(OC)=C/C(C)=C/[C@@H](C)[C@@H](O)[C@@H](C)[C@@H](O)[C@H](C)C/C(C)=C/C=C/[C@@H]2OC)C[C@@H](O[C@@H]2C[C@H](OC(=O)CCCCCCCC)[C@@H](OC(N)=O)[C@H](C)O2)[C@@H]1C [Compound 11, 3-nonanoate Concanamycin B] under target or system V-ATPase (Homo sapiens, UniProt P27449): log10 of IC50 reported as 2.23

Record for CC=CC1OC(O)(C(C)C(O)C(C)C2OC(=O)C(OC)=CC(C)=CC(C)C(O)C(C)C(O)C(C)CC(C)=CC=CC2OC)CC(OC2CC(O)C(OC(N)=O)C(C)O2)C1C (centres unmarked) [Compound 4, concanamycin B, reference compound] under target or system V-ATPase (Homo sapiens, UniProt P27449): log10 of IC50 reported as 1.41

Record for C/C=C/[C@H]1O[C@@](O)([C@@H](C)[C@H](O)[C@H](C)[C@H]2OC(=O)/C(OC)=C/C(C)=C/[C@@H](C)[C@@H](O)[C@@H](CC)[C@@H](O)[C@H](C)C/C(C)=C/C=C/[C@@H]2OC)C[C@@H](O[C@@H]2C[C@H](OC(C)=O)[C@@H](OC(C)=O)[C@H](C)O2)[C@@H]1C under target or system V-ATPase (Homo sapiens, UniProt P27449): log10 of IC50 reported as 0.49

Record for CO/C1=C\C(C)=C\[C@@H](C)[C@@H](O)[C@@H](C)C/C(C)=C/C=C/[C@H](OC)[C@@H]([C@@H](C)[C@@H](O)[C@H](C)[C@@]2(O)C[C@@H](OC=O)[C@H](C)[C@@H](C(C)C)O2)OC1=O under target or system V-ATPase (Homo sapiens, UniProt P27449): log10 of IC50 reported as 1.08

Record for C#CCCC(=O)O[C@@H]1C[C@H]([C@@H](C)[C@H](O)[C@H](C)[C@H]2OC(=O)/C(OC)=C/C(C)=C/[C@@H](C)[C@@H](O)[C@@H](C)C/C(C)=C/C=C/[C@@H]2OC)O[C@H](C(C)C)[C@H]1C under target or system V-ATPase (Homo sapiens, UniProt P27449): log10 of IC50 reported as 1.79
